Test system: HCT116 MTAP null cells
Test: HCT116 MTAP null cell line proliferation (CellTiter-Glo cell viability, 6 days)
Assay type: cell-based
Details: HCT116 MTAP null cells, 6 days of treatment, CellTiter-Glo cell viability; read-out: HCT-116 MTAP null IC50
pIC50: −log10 of the molar value.
MEASURED PROPERTY: pIC50

Sample records with pIC50:
COMPOUND: Cn1ncc2c(N)nc3cc(F)c(C(=O)N4CC[C@@H](Oc5ccc(C(F)(F)F)cn5)C4)cc3c21 (single isomer, unassigned) [Example 474]
pIC50: 6.07
--
COMPOUND: CC1OCc2c1c(N)nc1ccc(C(=O)N3C(C)COCC3c3ccc(OC(F)F)nn3)cc21 (mixture of isomers)
pIC50: 7.28
--
COMPOUND: Nc1nc2cc(Cl)c(C(=O)N3CCOCC3c3ccc(OC(F)F)nc3)cc2c2c1COC2 (racemic)
pIC50: 7.64
--
COMPOUND: CC1OCc2c1c(N)nc1cnc(C(=O)N3C(C)COCC3c3ccc(OC(F)F)nn3)cc21 (mixture of isomers)
pIC50: 7.46
--
COMPOUND: Nc1nc2cc(F)c(C(=O)N3CCOCC3c3ccc(OC(F)F)nc3)cc2c2c1COC2 (racemic)
pIC50: 6.82

[A] CC1OCc2c1c(N)nc1ccc(C(=O)N3C(C)COCC3c3ccc(C(F)(F)F)cc3F)cc21 (mixture of isomers)
[B] Nc1nc2cc(F)c(C(=O)N3CCOCC3c3ccc(F)c(C(F)(F)F)c3)cc2c2c1COC2 (racemic)
[C] CC1OCc2c1c(N)nc1cnc(C(=O)N3C(C)COCC3c3ccc(C(F)(F)F)cc3F)cc21 (mixture of isomers)
[D] CC(C)(C)OC(=O)N1CCN(C(=O)c2cc3c4c(c(N)nc3cn2)COC4)[C@@H](c2ccc(C(F)(F)F)cc2)C1 (single isomer, unassigned)
Query: Rank items: key pIC50, increasing. In your reply, arrange the labels in the requested order.
Response: D, C, B, A

###

Tested on: HCT116 MTAP null cells
Assay: HCT116 MTAP null cell line proliferation (CellTiter-Glo cell viability, 6 days)
Format: cell-based
Settings: HCT116 MTAP null cells, 6 days of treatment, CellTiter-Glo cell viability; read-out: HCT-116 MTAP null IC50
MEASURED PROPERTY: IC50 (nM)

COMPOUND: Nc1nc2cnc(C(=O)N3CCOCC3c3ccc(F)c(C(F)(F)F)c3)cc2c2c1COC2 (racemic)
READING: 505

COMPOUND: Nc1nc2cc(Cl)c(C(=O)N3CCOCC3c3ccnc(C(F)(F)F)c3)cc2c2c1COC2 (racemic)
READING: 234

COMPOUND: CC1OCc2c1c(N)nc1cnc(C(=O)N3CCOCC3c3ccc(C(F)(F)C(F)(F)F)cc3)cc21 (mixture of isomers)
READING: 30

COMPOUND: Nc1nc2cnc(C(=O)N3CCOCC3c3ccc(OC(F)F)c(F)c3)cc2c2c1COC2 (racemic)
READING: 437

COMPOUND: CC1OCc2c1c(N)nc1cnc(C(=O)N3C(C)COCC3c3ccc(OC(F)(F)F)cc3F)cc21 (mixture of isomers)
READING: 403

COMPOUND: Nc1nc2cnc(C(=O)N3CCOC[C@@H]3c3ccc(OC(F)F)nc3)cc2c2c1COC2.Nc1nc2cnc(C(=O)N3CCOC[C@H]3c3ccc(OC(F)F)nc3)cc2c2c1COC2
READING: 624

COMPOUND: Nc1nc2cc(F)c(C(=O)N3CC(c4ccc(C(F)(F)F)cc4)C3)cc2c2c1COC2
READING: 633

COMPOUND: Nc1nc2cnc(C(=O)N3CCOCC3c3ccc(C(F)(F)F)cc3F)cc2c2c1COC2 (racemic)
READING: 193

COMPOUND: Cn1ncc2c(N)nc3cc(F)c(C(=O)N4CC[C@@H](Oc5ccc(C(F)(F)F)cn5)C4)cc3c21 (single isomer, unassigned) [Example 475]
READING: 175

[I] C[C@@H]1COC[C@H](c2ccc(OC(F)F)c(F)c2)N1C(=O)c1cc2c3c(c(N)nc2cn1)COC3 (racemic)
[II] Nc1nc2cc(F)c(C(=O)N3CCOCC3c3ccnc(C(F)(F)F)c3)cc2c2c1COC2 (racemic)
[III] C[C@@H]1COC[C@H](c2ccc(OC(F)F)nn2)N1C(=O)c1ccc2nc(N)c3c(c2c1)COC3 (racemic)
[IV] Nc1nc2cnc(C(=O)N3CCOCC3c3ccc(OC(F)(F)F)cc3F)cc2c2c1COC2 (racemic)
Query: Could you please order the items by IC50, going from the lowest number to the highest? Arrange the labels as the request states and list them.
Response: III, I, IV, II
